# Assayed Target: hGIPR (Homo sapiens)
# Sequence (P48546 22-466): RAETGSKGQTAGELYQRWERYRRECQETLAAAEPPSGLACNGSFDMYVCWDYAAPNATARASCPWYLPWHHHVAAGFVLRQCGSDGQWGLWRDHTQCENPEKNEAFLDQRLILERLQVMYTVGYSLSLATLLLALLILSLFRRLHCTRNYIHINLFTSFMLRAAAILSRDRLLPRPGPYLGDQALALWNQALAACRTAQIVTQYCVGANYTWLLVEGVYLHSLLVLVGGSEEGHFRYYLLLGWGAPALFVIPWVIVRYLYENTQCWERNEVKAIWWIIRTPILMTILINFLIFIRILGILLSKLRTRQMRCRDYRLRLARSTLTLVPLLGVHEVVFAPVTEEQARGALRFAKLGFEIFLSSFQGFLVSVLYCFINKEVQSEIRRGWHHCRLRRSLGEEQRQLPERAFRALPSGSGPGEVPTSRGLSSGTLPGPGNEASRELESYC
# Method Summary: Functional cAMP activity in the presence of 1% HSA
# Type: cell-based
# Assay Context: read-out: cAMP Rel EC50, hGIPR
Starred links: 1 amine or outer side, 2 acyl side, 3 side chain; linkers in the order of their positions; H or OH if unused. Non-standard residues stand in square brackets, D forms with d. Groups on a side chain read outwards from the residue. No end group written: not given here. *: point of attachment. C20 diacid = O=C(O)CCCCCCCCCCCCCCCCCCC(=O)*; C18 diacid = O=C(O)CCCCCCCCCCCCCCCCC(=O)*; αMePhe(2-F) = C[C@](N)(Cc1ccccc1F)C(=O)O; γGlu = O=C(O)[C@H](CCC(=O)[*:2])N[*:1]; αMe4Pal = C[C@](N)(Cc1ccncc1)C(=O)O; αMeY = C[C@](N)(Cc1ccc(O)cc1)C(=O)O; 4Pal = N[C@@H](Cc1ccncc1)C(=O)O; αMeL = CC(C)C[C@](C)(N)C(=O)O; αMeS = C[C@](N)(CO)C(=O)O; Orn = NCCC[C@H](N)C(=O)O; AEEA = NCCOCCOCC(=O)O; Aib = CC(C)(N)C(=O)O
Measurement Kind: EC50 (nM)
Answers are plain numbers, in nM.

[[record]]
substance = "Y[Aib]QGTFTSDFSK[αMeL]LDKK([AEEA-γGlu-C18 diacid])AQ[Aib]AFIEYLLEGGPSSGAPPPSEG-NH2 [Example 48]"
measurement_kind = "EC50"
result_unit = "nM"
measurement = 46.9


Give measured EC50 for every item shown.
1. H-Y[Aib]QGTFTSDFS[Orn][αMeL]LDKK([AEEA-γGlu-C18 diacid])AQ[Aib]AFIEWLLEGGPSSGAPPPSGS-NH2 [Example 168]
2. H-Y[Aib]QGT[αMePhe(2-F)]TSD[4Pal][αMeS]I[αMeL]LD[Orn]K([γGlu-γGlu-C18 diacid])AQ[Aib]NFI[dE][αMeY]LIEGGPSSGEPEPSEG-NH2 [Example 473]

[31.9, 1.11]

I would be grateful if you could provide EC50 for each of the following entries.
1. H-Y[Aib]QGTFTSDFS[Orn][αMeL]LDKK([AEEA-γGlu-C20 diacid])AQ[Aib]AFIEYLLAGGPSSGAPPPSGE-NH2 [Example 82]
2. H-Y[Aib]QGTFTSDFS[Orn][αMeL]LDKK([AEEA-γGlu-C20 diacid])AQ[Aib]AFIEYLLAGGPSSGEPPPEGE-NH2 [Example 102]
3. H-Y[Aib]QGTFTSD[4Pal]SQ[αMeL]LDKK([Glu-γGlu-C18 diacid])AQ[αMe4Pal]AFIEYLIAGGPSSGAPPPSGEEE-NH2 [Example 1089]

[87.8, 159, 34.6]

Cited source for all entries: patent US20240270821A1
